- Target Desc: 5-HT4 receptor (Cavia porcellus, UniProt O70528)
- Construct: crude synapse membrane sample was prepared from guinea pig striatum; from tissue; host or cells: guinea pig striatum, crude synaptic membranes
- Sequence (O70528 whole entry): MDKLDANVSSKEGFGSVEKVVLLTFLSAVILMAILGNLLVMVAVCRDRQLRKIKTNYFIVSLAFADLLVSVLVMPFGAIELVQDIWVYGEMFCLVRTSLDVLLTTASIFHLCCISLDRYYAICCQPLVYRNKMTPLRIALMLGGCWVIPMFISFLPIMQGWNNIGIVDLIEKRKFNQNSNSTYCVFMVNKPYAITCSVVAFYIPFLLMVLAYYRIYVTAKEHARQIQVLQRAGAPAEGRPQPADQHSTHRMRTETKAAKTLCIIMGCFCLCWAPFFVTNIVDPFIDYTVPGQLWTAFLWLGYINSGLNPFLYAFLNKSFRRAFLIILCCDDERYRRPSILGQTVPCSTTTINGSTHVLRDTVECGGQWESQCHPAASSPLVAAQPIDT
- Assay Explanation: 5-HT4 receptor binding test
- Parameters: species or system guinea pig
- Experimental Setup: [3H]GR113808 0.1 nM, crude synapse membrane from guinea pig striatum, 37°C; read-out: Affinity for receptor (Ki value, nM) 5-HT4
compounds and their reported Ki
Measured Attribute: Ki (nM)

[
  {
    "Compound": "COc1cc(N)c(Cl)cc1C(=O)NC[C@H]1CCN(CCCCNC(=O)c2cn(Cc3ccccc3)c3ccccc23)C1",
    "Measured Attribute": "Ki",
    "Units Text": "nM",
    "Reported Value": 1.2
  },
  {
    "Compound": "COc1cc(N)c(Cl)cc1C(=O)NCC1CCN(CCCNC(=O)c2cccs2)C1 (centres unmarked)",
    "Measured Attribute": "Ki",
    "Units Text": "nM",
    "Reported Value": 4.4
  },
  {
    "Compound": "COc1cc(N)c(Cl)cc1C(=O)NCC1CCN(CCCNC(=O)c2ccc(Cl)cc2)C1 (centres unmarked)",
    "Measured Attribute": "Ki",
    "Units Text": "nM",
    "Reported Value": 3.1
  },
  {
    "Compound": "COc1cc(N)c(Cl)cc1C(=O)NCC1CCN(CCCC(=O)Nc2ccccc2)C1 (centres unmarked)",
    "Measured Attribute": "Ki",
    "Units Text": "nM",
    "Reported Value": 7.4
  },
  {
    "Compound": "COc1cc(N)c(Cl)cc1C(=O)NCC1CCN(CCCCCNC(=O)c2cccc(Cl)c2)CC1",
    "Measured Attribute": "Ki",
    "Units Text": "nM",
    "Reported Value": 0.81
  },
  {
    "Compound": "COc1cc(N)c(Cl)cc1C(=O)NCC1CCN(CCCCNC(=O)c2cn(C)c3ccccc23)CC1",
    "Measured Attribute": "Ki",
    "Units Text": "nM",
    "Reported Value": 1.6
  },
  {
    "Compound": "COc1cc(N)c(Cl)cc1C(=O)NC[C@H]1CCN(CCNC(=O)CCCc2ccccc2)C1",
    "Measured Attribute": "Ki",
    "Units Text": "nM",
    "Reported Value": 5.3
  },
  {
    "Compound": "COc1cc(N)c(Cl)cc1C(=O)NCC1CCN(CCCCCNC(=O)Nc2ccc(Cl)cc2)CC1",
    "Measured Attribute": "Ki",
    "Units Text": "nM",
    "Reported Value": 1.1
  }
]
